Each recorded value in this set is attributed to ChEMBL document CHEMBL4699513.

- Tested on: Pseudomonas aeruginosa
- method.notes: Antimicrobial activity against Pseudomonas aeruginosa ATCC 19429 assessed as zone of inhibition at 4 mg/ml incubated for 24 hrs by agar well diffusion method
- Assay type: functional
- applied.conditions: read-out: IZ
experimental.endpoint: zone of inhibition at 4000 µg/mL (mm)
Write the number in mm without appending the unit.

Memo: O=C(c1ccncc1)N1NC(c2ccc(Cl)cc2)=CC1c1ccc(F)cc1 (centres undefined) , reported zone of inhibition at 4000 µg/mL: 12.3

Memo: O=C(c1ccncc1)N1NC(c2ccccc2)=CC1c1cccc([N+](=O)[O-])c1 (centres undefined) , reported zone of inhibition at 4000 µg/mL: 12.3

Memo: Cc1ccc(C2=CC(c3ccc(Br)cc3)N(C(=O)c3ccncc3)N2)cc1 (centres undefined) , reported zone of inhibition at 4000 µg/mL: 20.4

Memo: O=C(c1ccncc1)N1NC(c2ccc(Br)cc2)=CC1c1ccccc1 (centres undefined) , reported zone of inhibition at 4000 µg/mL: 10.3

Memo: COc1cccc(C2=CC(c3ccc(Br)cc3)N(C(=O)c3ccncc3)N2)c1 (centres undefined) , reported zone of inhibition at 4000 µg/mL: 14.3

Memo: COc1cccc(C2=CC(c3ccc(Cl)cc3)N(C(=O)c3ccncc3)N2)c1 (centres undefined) , reported zone of inhibition at 4000 µg/mL: 12.3

Memo: CN[C@@H]1[C@H](O[C@H]2[C@H](O[C@H]3[C@H](O)[C@@H](O)[C@H](N=C(N)N)[C@@H](O)[C@@H]3N=C(N)N)O[C@@H](C)[C@]2(O)C=O)O[C@@H](CO)[C@H](O)[C@H]1O [STREPTOMYCIN] , reported zone of inhibition at 4000 µg/mL: 25

Memo: O=C(c1ccncc1)N1NC(c2ccc(F)cc2)=CC1c1ccc(Br)cc1 (centres undefined) , reported zone of inhibition at 4000 µg/mL: 12.4

Memo: O=C(c1ccncc1)N1NC(c2ccc(Cl)cc2)=CC1c1ccc([N+](=O)[O-])cc1 (centres undefined) , reported zone of inhibition at 4000 µg/mL: 14.2

---

Record form. Attribute: log10 MIC. Fill in for each entry.
- Test system: Pseudomonas aeruginosa
- method.notes: Antimicrobial activity against Pseudomonas aeruginosa ATCC 19429 incubated for 24 hrs by broth microdilution method
- Format: functional
In our notation, the value equals log10 of MIC in µM.

Memo: Cc1ccc(C2=CC(c3ccc(Br)cc3)N(C(=O)c3ccncc3)N2)cc1 (stereo not drawn) , reported log10 MIC: 1.15

Memo: `CN[C@@H]1[C@H](O[C@H]2[C@H](O[C@H]3[C@H](O)[C@@H](O)[C@H](N=C(N)N)[C@@H](O)[C@@H]3N=C(N)N)O[C@@H](C)[C@]2(O)C=O)O[C@@H](CO)[C@H](O)[C@H]1O` , reported log10 MIC: 0.72

Memo: COc1cccc(C2=CC(c3ccc(Cl)cc3)N(C(=O)c3ccncc3)N2)c1 (stereo not drawn) , reported log10 MIC: 1.80

Memo: Cc1ccc(C2C=C(c3ccc(Cl)cc3)NN2C(=O)c2ccncc2)cc1 (stereo not drawn) , reported log10 MIC: 2.12

Memo: O=C(c1ccncc1)N1NC(c2ccccc2)=CC1c1cccc([N+](=O)[O-])c1 (stereo not drawn) , reported log10 MIC: 1.83

Memo: O=C(c1ccncc1)N1NC(c2ccc(Cl)cc2)=CC1c1ccc([N+](=O)[O-])cc1 (stereo not drawn) , reported log10 MIC: 2.09

Memo: O=C(c1ccncc1)N1NC(c2ccc(F)cc2)=CC1c1ccc(Br)cc1 (stereo not drawn) , reported log10 MIC: 1.46

Memo: O=C(c1ccncc1)N1NC(c2ccc(Cl)cc2Cl)=CC1c1cccc([N+](=O)[O-])c1 (stereo not drawn) , reported log10 MIC: 2.66
